- MEASUREMENT_NOTES: logP determination via HPLC retention times (calibration with unbranched alkan-2-ones)
- Type: physicochemical
- CONDITION_DETAILS: from retention times, linear interpolation between alkan-2-ones
ASSAY_ENDPOINT: chromatographic logP

MOLECULE: CC1(O)OC(=O)C(c2ccc(F)cc2Br)=C1c1cccs1 (centres unmarked)
ASSAY_ENDPOINT: chromatographic logP
QUANTITATIVE_READOUT: 2.64
//
MOLECULE: Cc1nnc(Cl)c(-c2ccccc2Cl)c1-c1ccc(Cl)s1 [Beispiel 58]
ASSAY_ENDPOINT: chromatographic logP
QUANTITATIVE_READOUT: 4.01
//
MOLECULE: CC1(O)OC(=O)C(c2ccccc2F)=C1c1ccc(Cl)s1 (centres unmarked)
ASSAY_ENDPOINT: chromatographic logP
QUANTITATIVE_READOUT: 2.93
//
MOLECULE: CC1(O)OC(=O)C(c2c(F)cccc2F)=C1c1ccc(Cl)s1 (centres unmarked)
ASSAY_ENDPOINT: chromatographic logP
QUANTITATIVE_READOUT: 2.94
//
MOLECULE: Cc1n[nH]c(=O)c(-c2ccccc2F)c1-c1ccc(Cl)s1
ASSAY_ENDPOINT: chromatographic logP
QUANTITATIVE_READOUT: 2.64

I: CC1(O)OC(=O)C(c2c(Cl)cccc2Cl)=C1c1ccc(Cl)s1 (centres unmarked)
II: Cc1n[nH]c(=O)c(-c2c(F)cccc2F)c1-c1nccs1
Query: Please indicate which has the smaller reported chromatographic logP: I , or II . API: response body contains the label of the selected item.
Result: II
(II: 1.57, I: 3.26)
